Values compiled from patent US20110020369A1.

Target: T1, human TSLPR on Ba/F3-hTSLPR-hIL7Ra cells (human, UniProt Q9HC73 23-371)
T1 sequence (looked up): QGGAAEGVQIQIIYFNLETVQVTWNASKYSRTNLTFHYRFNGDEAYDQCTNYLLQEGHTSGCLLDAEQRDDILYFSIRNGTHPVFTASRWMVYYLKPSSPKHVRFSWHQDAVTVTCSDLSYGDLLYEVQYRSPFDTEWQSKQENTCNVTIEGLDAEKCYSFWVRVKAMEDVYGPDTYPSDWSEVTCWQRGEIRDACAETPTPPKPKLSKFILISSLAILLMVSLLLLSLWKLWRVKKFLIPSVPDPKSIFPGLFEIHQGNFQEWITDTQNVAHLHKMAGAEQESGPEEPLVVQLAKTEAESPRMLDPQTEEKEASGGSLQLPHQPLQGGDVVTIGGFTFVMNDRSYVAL
Test: cell-based or functional assay
We begin with a simple list: items and their reported IC50 Assay I, Ba/F3-huTSLPR proliferation.
endpointName: IC50 Assay I, Ba/F3-huTSLPR proliferation (µg/mL)

{"columns": ["binder", "experimentalResult"],
 "data": [
  ["rat anti-human TSLPR antibody 18B3 (antibody, V domains shown, Rat monoclonal antibody; also called r18B3; LB1.18B3) VH: EVQLVESGGGLVQPGRSLRLSCVASGFTFNNYWMTWVRQAPGKGLEWVASITDTSGRTYYPDSVKGRFTISRDHAKSTLYLQMNSLRPEDTATYYCTKTLGGIPRDWGQGVMVTVSS VL: NIQLTQSPSLLSASVGDRVTLSCKGSQNINNYLAWYQQKLGEAPKLLIFKTNILQTGIPLRFSGSGSGTDYTLTISSLHCEDLATYYCYQFNNGFTFGPGTKLELKR", 0.318],
  ["mouse anti human TSLPR antibody 13H5 (antibody, mouse IgG1, V domains shown, Mouse IgG1/kappa purified from hybridoma supernatant; also called m13H5; LB55.13H5.2C3) VH: QVLLKQSGPSLVQPSQSLSITCTVSGFSLSRYGVHWVRQSPGKGLEWLGVIWRSGSTDYNAAFMSRLSITQDNSKSQVFFNMNSLQSDDSAIYYCAKKAFYVMDYWGQGTSVTVSS VL: DIQMTQTTSSLSASLGDRVTISCRASQDISIYLNWYQQKPDGTVKLLIYYTSRLHSGVPSRFSGSGSGTNFSLTITNLEEEDIATYFCQQGNTLPWTFGGGTKLEIKR", 0.0127],
  ["mouse antibody 4G8 (antibody, mouse IgG1, V domains shown, Mouse IgG1/kappa from hybridoma; also called m4G8; LB55.4G8.2A6) VH: QVQLKQSGPGLVQPSQSLSITCTVSGFSLTIYGLHWVRQSPGKGLEWLGVIWRGGSTDYNAAFMSRLRITKDNSKSQVFFKMDSLQADDTAIYYCAKPYYDYDGNWYFDVWGAGTTVTVSS VL: DIVMTQSQKFMSTSVGDRVSVTCKASQNVGTNVAWYQKKSGQSPKPLIYSASSHCSEVPDRFTGSGSGTDFTLTINNVQSEDLAEYFCQQYNRYPLTFGTGTKLEVRR", 0.292],
  ["mouse antibody 49A5 (antibody, mouse IgG1, V domains shown, Mouse IgG1/kappa from hybridoma; also called m49A5; LB55.49A5.2F9) VH: QVQLKQSGPGLVQPSQSLSITCTVSGFSLTTYGVHWVRQSPGKGLEWLGVIWRGGNTAYNPAFMSRLSITKDNSKSQVFFKMNSLQADDTAIYHCAKKSYYGYHAMGYWGQGTSVTVSS VL: DIQMTQTTSSLSASLGDRVTINCRASQDISNYLNWYQQNPDGTVKLLIYYTSRLHSGVPSRFSGSGSGTDYSLTISNLEQEDIATYFCQQANTLPWTFGGGTKLEIKR", 0.143],
  ["mouse anti-human TSLPR antibody 70E8 (antibody, mouse IgG1, V domains shown, Mouse IgG1/kappa from hybridoma; also called m70E8; LB55.70E8.1A8) VH: DVQLQESGPDLVKPSQSLSLTCTVTNYSITSGYSWPWIRQFPGNKLEWLGYIHSSGRTNYNPSLKSRISITRDTSKNQFFLQLNSVTPEDTATYYCARSQLGLVFFAYWGQGTLVTVSA VL: DIVMTQSQKFMSTSVGDRVSVTCKASQSVGANVAWYQQIPGHSPKVLIYSASYRFSGVPDRFTGSGSGTDFTLTISNVQSEDLAEYFCQQYNSYPYTFGGGTKLEIRR", 0.0442],
  ["mouse antibody 54A11 (antibody, mouse IgG2a, V domains shown, Mouse IgG2a/kappa from hybridoma; also called m54A11; LB55.54A11.3D6) VH: EVQLQQSGPELVKPRASVKISCKASGYSFTGYYIHWVKQSHVKSLEWIGRINPYNGATIYNPNFKDKASLTVDKSSSTAFMEVHSLTSEDSAVYYCARSYGYVNYFDYWGQGTTLTVSS VL: EIVLTQSPATLSVTPGDSVSLSCRASQSISNNLHWYHQKSHESPRLLIKFGFQSISGIPSRFSGSGSGTDFTLSINSVETEDFGMYFCQQTNSWLTFGAGTKLELKR", 0.211],
  ["mouse antibody 54C11 (antibody, mouse IgG2a, V domains shown, Mouse IgG2a/kappa from hybridoma; also called m54C11; LB55.54C11.3G11) VH: QVQLQQSGPEVVRPGVSVKISCKGSGFTFTDYAIHWVRQSHAKSLEWIGIIRPSNGNTNCDQKFKDKATMTVDKSSSTAYLDLARLTSEDSAIYYCSRSRVWGGSLAYWGQGTLVTVSA VL: DIVMTQSQKFMSTSVGDRVSVTCKASQNVGTNIAWYQQKPGQSPEALIYSASYRYSGVPDRFTGSGSGTDFTLTITNVQSEDLAEYFCQQYKSYPWTFGGGTKLEIKR", 0.0195],
  ["mouse antibody 61C11 (antibody, mouse IgG2a, V domains shown, Mouse IgG2a/kappa from hybridoma; also called m61C11; LB55.61C11.2B1) VH: QAYLQQSGAELVRSGASVKMSCKASGYTFTSYNLHWIKLTPGQGLEWIGYIYPGLNGTLYNQKFRGKATLTADTSSSTAYMQISSLTSEDSAVYFCARSDYGKAWFAYWGRGTLVTVSA VL: DILLTQSPAILSVSPGERVSFSCRASQSIATKIHWYQQRTDHSPRLLIQLGSESISGIPSRFSGSGSGTDFTFTINSVESEDIAVYYCQQSNRYPYTFGGGTKLEVKR", 0.174]
]}
